- Tested on: RIOK1
- run-conditions: concentration: 1 μM,replicates: in singlicate; n = 1;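 further: KINOMEscan kinase panel screen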
measured-quantity: %Inh (%)

compound-structure: Cc1ccc(-n2nc(C(C)(C)C)cc2NC(=O)Nc2ccc(OCCN3CCOCC3)c3ccccc23)cc1
measured-quantity: %Inh
readout-units: %
measured-result: 54
--
compound-structure: C[C@@H]1CCN(C(=O)CC#N)C[C@@H]1N(C)c1ncnc2[nH]ccc12
measured-quantity: %Inh
readout-units: %
measured-result: 0
--
compound-structure: Cc1occc1-c1nc(N)c(OC[C@@H](N)Cc2c[nH]c3ccccc23)cc1-c1cc2c(C)n[nH]c2cn1
measured-quantity: %Inh
readout-units: %
measured-result: 87
--
compound-structure: C[C@@H](Oc1cc(-c2cnn(C3CCNCC3)c2)cnc1N)c1c(Cl)ccc(F)c1Cl
measured-quantity: %Inh
readout-units: %
measured-result: 39
--
compound-structure: CCN(CC)CCCCNc1ncc2cc(-c3c(Cl)cccc3Cl)c(NC(=O)NC(C)(C)C)nc2n1
measured-quantity: %Inh
readout-units: %
measured-result: 0
--
compound-structure: CCN(CC)CCOc1ccc(Nc2ncc3cc(-c4c(Cl)cccc4Cl)c(=O)n(C)c3n2)cc1
measured-quantity: %Inh
readout-units: %
measured-result: 35
--
compound-structure: NC(=O)c1cc(-c2ccccc2)cc2c(C3CCNCC3)c[nH]c12
measured-quantity: %Inh
readout-units: %
measured-result: 79

###

- Test system: TTK
- run-conditions: concentration: 1 μM,replicates: in singlicate; n = 1

compound: O=C(NCCNc1ccnc(NCc2ccc(F)cc2)n1)c1cc2ccccc2s1 [GSK1379944]
readout-units: %
%Inh: 0
--
compound: CC(C)N1C(=O)Cc2cc(Nc3ncc(C(F)(F)F)c(NCc4cccc(S(C)(=O)=O)c4)n3)ccc21
readout-units: %
%Inh: 99.1
--
compound: CN(C)CC(O)COc1ccc(Nc2nccc(-c3cnn4nc(N5CCOCC5)ccc34)n2)cc1 (stereo not shown) [GW767488]
readout-units: %
%Inh: 57
--
compound: Cc1cc(C(=O)Nc2ccc(Oc3ccc4nc(NC(=O)C5CC5)cn4n3)cc2)nn1-c1ccccc1
readout-units: %
%Inh: 26

###

- Tested on: BRSK2
- run-conditions: concentration: 1 μM,replicates: in singlicate; n = 1
Below, each entry is listed alongside its reported %Inh.

molecule: CN(C)CC(O)COc1ccc(Nc2nccc(-c3cnn4nc(N5CCOCC5)ccc34)n2)cc1 (centres unmarked)
target-entity: BRSK2
%Inh: 33%

molecule: Cc1cc(C(=O)Nc2ccc(Oc3ccc4nc(NC(=O)C5CC5)cn4n3)cc2)nn1-c1ccccc1
target-entity: BRSK2
%Inh: 32%

molecule: Cl.Oc1cc(-c2nc(-c3ccccc3)[nH]c2-c2ccncc2)ccc1Cl
target-entity: BRSK2
%Inh: 1%

molecule: Cl.Cl.Nc1nc(-c2ccc3c(N)n[nH]c3c2)cc(N2CCCC(NC(=O)c3ccccc3)C2)n1 (centres unmarked)
target-entity: BRSK2
%Inh: 0%

molecule: O=C(NCCNc1ccnc(NCc2ccc(F)cc2)n1)c1cc2ccccc2s1
target-entity: BRSK2
%Inh: 0%

molecule: C[C@@H]1CCN(C(=O)CC#N)C[C@@H]1N(C)c1ncnc2[nH]ccc12
target-entity: BRSK2
%Inh: 0%

molecule: Cc1cc2cn[nH]c2cc1-c1cccc2c(N)c(C(N)=O)nnc12
target-entity: BRSK2
%Inh: 48%

molecule: Cl.Cl.NC[C@H](Cc1ccc(C(F)(F)F)cc1)NC(=O)c1cc(Br)c(-c2ccnc3[nH]ccc23)s1
target-entity: BRSK2
%Inh: 0%
